The reader will find reported Crop injury Soybean (Glycine max) values listed item by item below.
Tested on: Soybean (Glycine max)
Experiment: Upland foliar application test, crop injury soybean
Format: in vivo
Conditions: foliar application at stage of 2-3 leaves, 50 g ai/a, emulsion, 40th day after spray

| compound | Crop injury Soybean (Glycine max) |
| --- | --- |
| COc1cc(OC)nc(Oc2ccccc2C(OC)OC)n1 [Comp. Comp'd C, reference compound] | 40% |
| CCCCCOC(OCCCCC)c1ccccc1Oc1nc(OC)cc(OC)n1 [Compound No. 4] | 0% |
| CCCCCCCOC(OCCCCCCC)c1ccccc1Oc1nc(OC)cc(OC)n1 [Compound No. 6] | 0% |
| COc1cc(OC)nc(Oc2c(Cl)cccc2C(OC)OC)n1 [Comp. Comp'd E, reference compound] | 30% |

* * *

Test system: Johnsongrass
Test: Upland foliar application test, johnsongrass
Assay type: in vivo
Settings: Sorghum halepense, 960 h; foliar application at stage of 2-3 leaves, 50 g ai/a, emulsion, 40th day after spray; read-out: Herbicidal effects Johnsongrass
endpoint.label: pest or weed control at 5000 g/ha (%)

| compound | readout.units | recorded.measurement |
| --- | --- | --- |
| COc1cc(OC)nc(Oc2ccccc2C(OC)OC)n1 [Comp. Comp'd C, reference compound] | % | 100 |
| COC(=O)c1ccccc1Oc1nc(OC)cc(OC)n1 [Comp. Comp'd A, reference compound] | % | 100 |
| COc1cc(OC)nc(Oc2c(Cl)cccc2C(OC)OC)n1 [Comp. Comp'd E, reference compound] | % | 30 |

* * *

Test system: Soybean (Glycine max)
Experiment: Upland soil application test, crop injury soybean
Format: in vivo
Conditions: soil application one day after seeding, 50 g ai/a, wettable powder, fresh weight on 50th day after spray

| compound | Crop injury Soybean (Glycine max) [%] |
| --- | --- |
| COc1cc(OC)nc(Oc2ccccc2C(OC(C)C)OC(C)C)n1 | 0 |
| CCCCCOC(OCCCCC)c1ccccc1Oc1nc(OC)cc(OC)n1 | 0 |
| COC(=O)c1ccccc1Oc1nc(OC)cc(OC)n1 [Comp. Comp'd A, reference compound] | 100 |
| CCCCCCOC(OCCCCCC)c1ccccc1Oc1nc(OC)cc(OC)n1 | 0 |
| CCCCCCCCOC(OCCCCCCCC)c1ccccc1Oc1nc(OC)cc(OC)n1 | 0 |
| CCCOC(OCCC)c1ccccc1Oc1nc(OC)cc(OC)n1 | 0 |
| COc1cc(OC)nc(Oc2c(Cl)cccc2C(OC)OC)n1 [Comp. Comp'd E, reference compound] | 30 |
| COc1cc(OC)nc(Oc2ccccc2C=O)n1 [Comp. Comp'd B, reference compound] | 100 |
| CCCCCCCOC(OCCCCCCC)c1ccccc1Oc1nc(OC)cc(OC)n1 | 0 |
| CCCCOC(OCCCC)c1ccccc1Oc1nc(OC)cc(OC)n1 | 0 |
| CCOC(OCC)c1ccccc1Oc1nc(OC)cc(OC)n1 [Comp. Comp'd D, reference compound] | 40 |
| COc1cc(OC)nc(Oc2ccccc2C(OC)OC)n1 [Comp. Comp'd C, reference compound] | 50 |

* * *

Tested on: Cotton (Gossypium indicum)
Experiment: Upland soil application test, crop injury cotton
Format: in vivo
Details: soil application one day after seeding, 50 g ai/a, wettable powder, fresh weight on 50th day after spray
endpoint.label: Crop injury Cotton (Gossypium indicum) (%)

| compound | recorded.measurement |
| --- | --- |
| CCCOC(OCCC)c1ccccc1Oc1nc(OC)cc(OC)n1 | 0 |
| CCCCCCOC(OCCCCCC)c1ccccc1Oc1nc(OC)cc(OC)n1 | 0 |
| CCCCCCCCOC(OCCCCCCCC)c1ccccc1Oc1nc(OC)cc(OC)n1 | 0 |
| CCCCOC(OCCCC)c1ccccc1Oc1nc(OC)cc(OC)n1 | 0 |
| COc1cc(OC)nc(Oc2ccccc2C=O)n1 [Comp. Comp'd B, reference compound] | 100 |
| COc1cc(OC)nc(Oc2ccccc2C(OC)OC)n1 [Comp. Comp'd C, reference compound] | 55 |
| COc1cc(OC)nc(Oc2ccccc2C(OC(C)C)OC(C)C)n1 | 0 |
| CCCCCOC(OCCCCC)c1ccccc1Oc1nc(OC)cc(OC)n1 | 0 |
| COC(=O)c1ccccc1Oc1nc(OC)cc(OC)n1 [Comp. Comp'd A, reference compound] | 100 |
| CCOC(OCC)c1ccccc1Oc1nc(OC)cc(OC)n1 [Comp. Comp'd D, reference compound] | 45 |
| CCCCCCCOC(OCCCCCCC)c1ccccc1Oc1nc(OC)cc(OC)n1 | 0 |
| COc1cc(OC)nc(Oc2c(Cl)cccc2C(OC)OC)n1 [Comp. Comp'd E, reference compound] | 30 |
